The following sequences are shown together with reported protein stability index values.
Assay: protein stability index of a GFP-peptide fusion (yeast GPS) (PSI 1-4); higher = more stable; sorted into four equal gates, so the index is relative within each strain
Details: doa10∆
Please give the numeric answer without any surrounding text.

- DELSSKELVECHLYSQR [NNF1]: 2.05
- NPKYDTSNASMNTTLGS [YAR002W/NUP60]: 3.12
- SKQLSLEEKKKRPNNKT [IRR1]: 2.5

Attention now shifts to the item below.
For the sequence shown here, RVKVHFDQAGKKVSRRN [RPL13A] , give the reported protein stability index.
3.46

----------
Test: protein stability index of a GFP-peptide fusion (yeast GPS) (PSI 1-4); higher = more stable; sorted into four equal gates, so the index is relative within each strain
Details: doa10∆
Listed here: items and their measured protein stability index.
Give the value as a plain number.

• DEKLKTEKLKNDKSEVL [SRB8] = 3.09
• EQFKMVSMITDHNALPQ [POP1] = 3.04
• NIKTSEWDLYPQGFSSV [REC8] = 2.91

# lookup: protein stability index of KDLKEILSGFHNAGPVA [RPP1B]
2.93

Return reported protein stability index; argument: QRYQDLSQQQKDAQKKD [YIL149C/MLP2]
3.09

For LLVFRNADLDLDEMELH [YDL116W/NUP84] , what is its reported protein stability index?
3.01

Would you kindly share the measured protein stability index for IDSQMDEASGTPDEDML [GRR1] ?
2.93

Quick one: protein stability index of IAKIKKVCECVCMHCGK [RPO21] ?
1.92

I would be grateful if you could share the reported protein stability index for IHNYDSKKSTITVRYWL [RGR1] .
3

Can you share its protein stability index? I mean this sequence: PFTASQSNINTNAPLRT [YIL149C/MLP2]
2.37

# lookup: protein stability index of MQRHVKVDGKVRTDTTY [RPS4A]
3.26

Requested read-out: protein stability index. Entry: GIFEKAKAKAVTSKVRN [YMR153W/NUP53]
2.24

Which protein stability index value is on record for RMLSFEDISKATHLPKD [RPN9] ?
2.95

Given RAASAKIESSVESQFSA [RPS8A] , state its recorded protein stability index.
3.11

----------
Below: a set of entries, each annotated with reported protein stability index.
Experiment: protein stability index of a GFP-peptide fusion (yeast GPS) (PSI 1-4); higher = more stable; sorted into four equal gates, so the index is relative within each strain
Settings: san1∆
Quick one: just the number, no unit, thanks!

Data request, read-out protein stability index, for VVPNEKADDDSVTIISA [ASC1]
3.05

# protein stability index lookup, item ENEVENINATNTSVLMK [YCS4]
3.09

----------
Experiment: protein stability index of a GFP-peptide fusion (yeast GPS) (PSI 1-4); higher = more stable; sorted into four equal gates, so the index is relative within each strain
Conditions: pdr5∆
Each entry below carries its recorded protein stability index.
Number only, no unit.

Illustrative cases are given below, each with its answer.
- EELLLKDLEIRKLEISS [GAL11]: 2.31
- TSQYGTPSTETAASVFK [PRE3]: 2.29
- VVQDSQTATQLLERGRL [SMC2]: 2.87
- EASKKSAVKPRPLKLER [FAS1]: 3.16
- LEKLIFDMTNHYNDSQQ [SRB8]: 2.23
- TLENTLKAAFVAIGNTY [RPS2]: 1.9

# protein stability index lookup, item ERLMISSDAFEVDVCDK [RET1]
2.63

Given the entry SIDDHPYNLNLFPNELY [RPC31] , report its measured protein stability index.
2.53

----------
Assay: protein stability index of a GFP-peptide fusion (yeast GPS) (PSI 1-4); higher = more stable; sorted into four equal gates, so the index is relative within each strain
Settings: san1∆
# protein stability index annotations
Answer as a number with no unit attached.

* SSSSLECATCHGNLASC [RPO31] | 3.05

Kindly review the next sequence as well.
Request the reported protein stability index associated with KLIKFETRNEDDVVVLT [FAS1]
3.07

----------
Test: protein stability index of a GFP-peptide fusion (yeast GPS) (PSI 1-4); higher = more stable; sorted into four equal gates, so the index is relative within each strain
Conditions: pdr5∆
Would you please tag the item yes (1) when its protein stability index is 3 or above, and no (0) when it is below?

// known answers, use as guide
• KVTQMTPAPKISYKKGA [RPL36B] = yes (1)
• TAVAFWSWDIAVDNCAI [HRT1] = no (0)
• KVSSASAAASESDVAKQ [RPL16B] = no (0)

Now let's try a different one.
Kindly determine if protein stability index recorded for FITAKDKYKLYPVRIPR [YJR042W/NUP85] is above or exactly 3.
no (0)

----------
The following sequences are listed with their measured protein stability index values.
Experiment: protein stability index of a GFP-peptide fusion (yeast GPS) (PSI 1-4); higher = more stable; sorted into four equal gates, so the index is relative within each strain
Conditions: san1∆
Note: the reply should be a number with no unit written.

- KSQNTALPSTHKVTQKK [SIR4]: 2.79
- SAYVKAFYQKGNKLVEL [SMC1]: 2.12
- LLNLPPFQVSSFVKETK [SRB8]: 2.04

Name the recorded protein stability index for NYIENMNEMCKKINAKE [RPN8] .
3.12

Look up protein stability index: RKALPKEPKKLLPNSKN [DSN1]
2.69

----------
Reported values of protein stability index for individual entries
Experiment: protein stability index of a GFP-peptide fusion (yeast GPS) (PSI 1-4); higher = more stable; sorted into four equal gates, so the index is relative within each strain
Conditions: ubr1∆

Consider the reported protein stability index for these sequences:
- TFGTKHAADSQNNKPSF [YLR335W/NUP2]: 3.05
- SEHFLYLAKELNLTGPK [RPN1]: 2.98
- LLNLPPFQVSSFVKETK [SRB8]: 2.02
- NQVMMDRKIQGWLGALT [ARP7]: 2.98

Tell me the measured protein stability index of TVPNLPTTMVTNQKDTN [ISW2] , please.
1.75

What value of protein stability index has been reported for the following sequence? MKYLAAYLLLNAAGNTP [RPP2A]
2.32

Returns the measured protein stability index for the input sequence. Input: ILEESLNAIILKLEKLN [SMC3]
2.24

----------
Assay: protein stability index of a GFP-peptide fusion (yeast GPS) (PSI 1-4); higher = more stable; sorted into four equal gates, so the index is relative within each strain
Settings: pdr5∆
Here, each record is paired with measured protein stability index data.
// response body must contain only the number

Answered cases to consult:
• QTNIWEENWDDVEVDDD [SEM1] = 3.28
• VQYLRSVQDLGGSATAR [YML031W/NDC1] = 1.5
• DRETALDFIGRRGTALG [RPB2] = 2.07

I have this sequence here, LEEFEFKHGPMSLINDA [SMD2] , and I need its recorded protein stability index.
3.22

Looking for the measured protein stability index of PDFLSKYSAITSSIFQE [NUT1] , can you help?
2.05

Name the reported protein stability index value associated with the sequence HTKSDERSELLRLFNAP [SNF2]
2.72

For the sequence SKEWFQLDDEDFDLLNK [FAS1] , what protein stability index is on record?
3.31

Form field: reported protein stability index of GSLKLPNCPRPNMSICI [RPL1A]
2.67

For AICRNHIMEPCIECQPK [HRT1] , what is its reported protein stability index?
3.23

For AQQDSTNVRLYSLLLAS [ECM29] , what is its reported protein stability index?
2.04

Any idea what protein stability index was measured for VIKLAKYPDYFPEWKKS [ARP9] ?
2.94

Please look up its protein stability index: DKLKVYKQAMNETSEQL [SNF5]
3.39

Given the sequence HTLMSFAGEAGDTVQFA [PRE1] , what is its reported protein stability index?
3.3

protein stability index lookup needed for ISQKLHDSILHSRILPK [RRP43] , thanks.
2.58

// protein stability index lookup, key: NIKIDAKPALFERFINA [MCD1]
2.8

Looking for the measured protein stability index of TGKIVDVVGTLSRNGKP [FAS1] , can you help?
3.6

----------
Experiment: protein stability index of a GFP-peptide fusion (yeast GPS) (PSI 1-4); higher = more stable; sorted into four equal gates, so the index is relative within each strain
Details: ubr1∆
Everything with protein stability index lower than 2 is false; everything else, including exactly 2, is true.

Worked set:
• GAEVLIKGSKLSLGEAF [COR1] = true
• TSKSLVKRYRLAPTQLS [SIN4] = true

Hi team, for NLRLLVEENRVRYTTSV [DLS1] , is the recorded protein stability index at or above 2?
true

Dear colleague, could you confirm whether NYIENMNEMCKKINAKE [RPN8] has protein stability index at or above 2?
true

I'd appreciate it if you could say whether DAAAEEEKEEEAAEESD [RPP1B] has protein stability index at least equal to 2.
true

Evaluate EKACQVLKYMLLSKIML [RPN6] : protein stability index at minimum 2?
false

Is it the case that VEITFGKEFGDVSVKMG [RRP45] has protein stability index reaching or exceeding 2?
false

Is reported protein stability index greater than or equal to 2 here: LSESDKKSKLISLYLLN [RPN12]
true
